The entries that follow carry IC50 values tested on Endothelin-1 receptor (Homo sapiens, UniProt P25101), drawn from several published reports.
- testedSystem: Endothelin-1 receptor (Homo sapiens, UniProt P25101)
- Sequence (P25101 whole entry): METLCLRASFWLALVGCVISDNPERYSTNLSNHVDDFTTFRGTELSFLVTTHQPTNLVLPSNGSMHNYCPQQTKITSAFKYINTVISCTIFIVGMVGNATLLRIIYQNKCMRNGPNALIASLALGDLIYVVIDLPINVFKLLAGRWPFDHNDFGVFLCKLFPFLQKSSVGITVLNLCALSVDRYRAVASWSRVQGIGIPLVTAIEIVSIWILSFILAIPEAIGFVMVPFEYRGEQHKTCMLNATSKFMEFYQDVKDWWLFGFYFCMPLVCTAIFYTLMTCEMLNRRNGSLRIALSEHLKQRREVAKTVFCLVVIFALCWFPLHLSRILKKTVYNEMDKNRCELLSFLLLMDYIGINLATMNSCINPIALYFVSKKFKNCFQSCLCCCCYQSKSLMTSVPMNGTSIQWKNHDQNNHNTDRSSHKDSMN
Under this convention, 1 denotes IC50 strictly below 20 nM and 0 denotes IC50 at or above 20 nM.

- molecule: "COc1ccc([C@H]2[C@H](C(=O)O)[C@@H](c3ccc4c(c3)OCO4)CN2CC(=O)Nc2c(C(C)C)cccc2C(C)C)cc1"
  group: 0
- molecule: "Cc1ccc(CC(=O)c2sccc2S(=O)(=O)Nc2onc(C)c2Cl)c(C)c1"
  group: 1
- molecule: "CCCOc1cc(OC)ccc1[C@@H]1c2nc(NC(C)C)ccc2[C@H](c2ccc3c(c2)OCO3)[C@H]1C(=O)O"
  group: 1
- molecule: "Cc1cc(C)c(NC(=O)c2sccc2S(=O)(=O)Nc2onc(C)c2Cl)c(C(=O)C2CC2)c1"
  group: 1
- molecule: "COc1cc(NC(=O)c2sccc2S(=O)(=O)Nc2onc(C)c2Cl)c(C(N)=O)cc1OC"
  group: 1
- molecule: "COc1cccc(-c2ccsc2S(=O)(=O)Nc2onc(C)c2Br)c1"
  group: 0
- molecule: "COc1ccc([C@@H]2c3nc(-c4ccccc4)ccc3C(c3ccc4c(c3)OCO4)[C@H]2C(=O)O)cc1 (single isomer, unassigned)"
  group: 1
- molecule: "CCc1cc(CC)c(NC(=O)CN2C[C@H](c3ccc4c(c3)OCO4)[C@@H](C(=O)O)[C@@H]2c2ccc(OC)cc2)c(CC)c1"
  group: 1
- molecule: "CC(=O)c1cc(C)cc(C)c1NC(=O)c1sccc1S(=O)(=O)Nc1onc(C)c1Cl"
  group: 1
- molecule: "COc1cccc(NC(=O)c2sccc2S(=O)(=O)Nc2onc(C)c2Br)c1"
  group: 0
- molecule: "COc1ccccc1Oc1c(NS(=O)(=O)c2ccc(C(C)C)cn2)nc(-c2ccnc(-c3nnn[nH]3)c2)nc1OCCO"
  group: 0
- molecule: "Cc1cc(CC(C)C)ccc1-c1ccsc1S(=O)(=O)Nc1onc(C)c1Br"
  group: 0
- molecule: "Cc1noc(NS(=O)(=O)c2ccsc2C(=O)Nc2ccc3c(c2)OCO3)c1Br"
  group: 1
- molecule: "Cc1ccccc1C(NC(=O)CN1C[C@H](c2ccc3c(c2)OCO3)[C@@H](C(=O)O)[C@@H]1c1ccc(OCCOC(C)C)cc1)c1ccccc1C.O=C(O)C(F)(F)F (stereo in doubt; form 1)"
  group: 0
- molecule: "CCc1ccc(NC(=O)c2sccc2S(=O)(=O)Nc2onc(C)c2Br)cc1"
  group: 1
- molecule: "COC(=O)c1ccc2c(C(C(=O)NS(=O)(=O)c3ccc(C(C)C)cc3)c3ccc4c(c3)OCO4)cn(C)c2c1 (configuration not stated)"
  group: 0
- molecule: "COc1ccc([C@H]2[C@H](C(=O)O)[C@@H](c3ccc4c(c3)OCO4)CN2CC(=O)NC(CC(C)(C)C)c2ccccc2)cc1 (some centres not stated)"
  group: 0
